The measurements presented in this section are drawn from ChEMBL document CHEMBL1123985.

- System: Canis familiaris
- assay-overview: Area under plasma concentration vs time curve observed in female mongrel dogs after, iv administration of single 15 mg/kg dose
- Type: ADME, organism-based, Canis lupus familiaris
- Parameters: dose 15 mg/kg, route intravenous
- condition-parameters: dog, in vivo
property: AUC (ng·h/mL)
Field: numeric (ng·h/mL). Do not append units.

Solved entries (count: 4):
Using the record for `O=C(Cc1cccs1)N[C@@H]1C(=O)N2C(C(=O)O)=C(Cl)CS[C@H]12` , report its AUC.
75300

Similarly, `O=C(COc1ccccc1)N[C@@H]1C(=O)N2C(C(=O)O)=C(Cl)CS[C@H]12` ?
57500

Similarly, `O=C(Cc1csc2ccccc12)N[C@@H]1C(=O)N2C(C(=O)O)=C(Cl)CS[C@H]12` ?
29300

Similarly, `O=C(Cc1ccccc1)N[C@@H]1C(=O)N2C(C(=O)O)=C(Cl)CS[C@H]12` ?
97300

New cases:
Using the record for `Nc1nc(CC(=O)N[C@@H]2C(=O)N3C(C(=O)O)=C(Cl)CS[C@H]23)cs1` , report its AUC.
33200

Similarly, CC1(C)S[C@@H]2[C@H](NC(=O)COc3ccccc3)C(=O)N2[C@H]1C(=O)O [PENICILLIN V] ?
25300

* * *

In this section we review reported concentration at 1 h values for a set of compounds.
- assay-overview: Mean plasma levels in rats 1 hr after iv administration of 100 mg/kg of probenecid 5 min prior to test compound
- Type: ADME, organism-based
- Design: dose 100 mg/kg, route intravenous
- condition-parameters: rat, read-out: Plasma levels
Express your answer as a number followed by its unit.

Using the record for `O=C(COc1ccccc1)N[C@@H]1C(=O)N2C(C(=O)O)=C(Cl)CS[C@H]12` , report its concentration at 1 h.
18400 ng/mL

Now let's try a different one.
Using the record for `Nc1nc(CC(=O)N[C@@H]2C(=O)N3C(C(=O)O)=C(Cl)CS[C@H]23)cs1` , report its concentration at 1 h.
9800 ng/mL

* * *

- Tested on: Streptococcus pyogenes
- assay-overview: Minimum inhibitory concentration against C203 strain of Streptococcus pyogenes
In this section we review reported MIC values for a set of molecules.
Field: numeric (µg/mL). Do not append units.

Solved entries (count: 4):
API: value(readout= MIC, system= Streptococcus pyogenes, query= N[C@@H](C(=O)N[C@@H]1C(=O)N2C(C(=O)O)=C(Cl)CS[C@H]12)c1ccccc1 [CEFACLOR ANHYDROUS] )
0.25

Similarly, `CC1(C)S[C@@H]2[C@H](NC(=O)COc3ccccc3)C(=O)N2[C@H]1C(=O)O` ?
0.06

Similarly, `O=C(COc1ccccc1)N[C@@H]1C(=O)N2C(C(=O)O)=C(Cl)CS[C@H]12` ?
0.06

Similarly, `O=C(Cc1csc2ccccc12)N[C@@H]1C(=O)N2C(C(=O)O)=C(Cl)CS[C@H]12` ?
0.06

Now let's try a different one.
API: value(readout= MIC, system= Streptococcus pyogenes, query= CC1=C(C(=O)O)N2C(=O)[C@@H](NC(=O)[C@H](N)c3ccccc3)[C@H]2SC1 [CEPHALEXIN ANHYDROUS] )
0.5

* * *

In this section we review reported dose excreted values for a set of compounds.
- assay-overview: Dose in urine (24-h urine excretion) in female mongrel dogs after oral administration of single 15 mg/kg dose
- Format: ADME, organism-based, Canis lupus familiaris
- Design: dose 15 mg/kg, route oral
- condition-parameters: dog
Field: numeric (%). Do not append units.

Solved entries (count: 2):
Using the record for `O=C(COc1ccccc1)N[C@@H]1C(=O)N2C(C(=O)O)=C(Cl)CS[C@H]12` , report its dose excreted.
18

Similarly, `O=C(Cc1cccs1)N[C@@H]1C(=O)N2C(C(=O)O)=C(Cl)CS[C@H]12` ?
17

New cases:
Using the record for `O=C(Cc1ccccc1)N[C@@H]1C(=O)N2C(C(=O)O)=C(Cl)CS[C@H]12` , report its dose excreted.
15

Similarly, `Nc1nc(CC(=O)N[C@@H]2C(=O)N3C(C(=O)O)=C(Cl)CS[C@H]23)cs1` ?
10
